# assayed target: PI3K delta (Homo sapiens)
# Sequence (O00329 with tags, fused parts or gaps limits assumed): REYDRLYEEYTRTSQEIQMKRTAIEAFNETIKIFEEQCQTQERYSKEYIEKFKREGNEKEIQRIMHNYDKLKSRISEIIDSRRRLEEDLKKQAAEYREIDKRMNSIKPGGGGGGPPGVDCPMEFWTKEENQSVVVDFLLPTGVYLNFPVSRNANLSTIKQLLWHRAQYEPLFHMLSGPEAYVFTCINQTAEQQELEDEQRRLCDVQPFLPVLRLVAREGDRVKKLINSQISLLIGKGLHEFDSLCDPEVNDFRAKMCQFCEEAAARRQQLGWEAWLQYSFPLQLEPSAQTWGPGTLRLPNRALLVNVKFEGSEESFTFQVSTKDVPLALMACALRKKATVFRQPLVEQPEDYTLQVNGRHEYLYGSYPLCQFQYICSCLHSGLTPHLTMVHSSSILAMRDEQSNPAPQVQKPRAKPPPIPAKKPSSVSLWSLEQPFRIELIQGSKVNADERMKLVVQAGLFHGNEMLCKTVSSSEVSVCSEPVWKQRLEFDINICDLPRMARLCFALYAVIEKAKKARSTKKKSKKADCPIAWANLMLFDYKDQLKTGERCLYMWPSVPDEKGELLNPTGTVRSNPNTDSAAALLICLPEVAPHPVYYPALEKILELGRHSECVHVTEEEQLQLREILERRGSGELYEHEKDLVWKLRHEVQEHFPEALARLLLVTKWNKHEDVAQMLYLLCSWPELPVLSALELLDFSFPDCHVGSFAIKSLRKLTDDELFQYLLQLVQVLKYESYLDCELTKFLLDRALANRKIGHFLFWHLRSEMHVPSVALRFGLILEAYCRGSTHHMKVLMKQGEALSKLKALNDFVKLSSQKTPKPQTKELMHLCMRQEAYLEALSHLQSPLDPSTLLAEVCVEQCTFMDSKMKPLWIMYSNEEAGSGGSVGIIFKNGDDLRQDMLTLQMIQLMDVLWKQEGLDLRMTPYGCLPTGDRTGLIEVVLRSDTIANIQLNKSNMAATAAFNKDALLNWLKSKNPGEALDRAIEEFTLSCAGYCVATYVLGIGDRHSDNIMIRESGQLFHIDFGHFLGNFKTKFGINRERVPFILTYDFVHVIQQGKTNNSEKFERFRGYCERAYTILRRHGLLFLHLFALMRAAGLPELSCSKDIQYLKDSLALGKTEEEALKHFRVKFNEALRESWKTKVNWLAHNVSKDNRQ
# experimental details: Enzymatic PI3K delta isoform inhibition (lipid kinase activity, Kinase-Glo)
# Type: biochemical
# Parameters: for the full-length p110-d subunit are generated and fused by overlapping PCR; His tag (C); made in house; host or cells: baculovirus; Tn5 (Trichoplusia ni) or TiniPro insect cells
# condition label: Enzymatic Assay
observation type: IC50 (nM)

>  <compound>
Cc1ccc(-c2ccc3ncnc(-c4cccc(C(=O)N5CCN(C)CC5)c4)c3c2)cn1

>  <IC50 / nM>
11.5

$$$$
>  <compound>
COc1ccc(-c2ccc3ncnc(-c4cccc(C(=O)N5CCN(C)CC5)c4)c3c2)cc1S(=O)(=O)N1CCCC1

>  <IC50 / nM>
11.5

$$$$
>  <compound>
CC(=O)N1CCN(C(=O)c2cccc(-c3ncnc4ccc(-c5ccc(C)nc5)cc34)c2)CC1

>  <IC50 / nM>
8.62

$$$$
>  <compound>
CC1(C)CN(C(=O)c2cncc(-c3ncnc4ccc(-c5cnc(N)nc5)cc34)c2)CCO1

>  <IC50 / nM>
10

$$$$
>  <compound>
COc1ccc(-c2ccc3ncnc(-c4cccc(C(=O)N5CCN(C(C)=O)CC5)c4)c3c2)cc1C(F)(F)F

>  <IC50 / nM>
10

$$$$
